system: Wistar rats; test: Diuretic Effect; type: in vivo, rat (Wistar, male); conditions: 0.1 mg/kg po, 4 hours; control 1.00
measurement_kind: Na+/K+
Number, no unit, nothing else.

Item under review: `CCCn1c(=O)c2[nH]c([C@]34C[C@@H]5[C@@H](O)[C@H](C3)[C@H]3[C@@H]5[C@H]34)nc2n(CCC)c1=O` . Reported Na+/K+?
3.07

Item under review: CCCn1c(=O)c2[nH]c(C34CC5CC3CC(O)(C5)C4)nc2n(CCC)c1=O (stereo not shown) . Reported Na+/K+?
3.15

Item under review: `CCCn1c(=O)c2[nH]c([C@@]34C[C@H]5C[C@@H]3C[C@@H](C4)[C@@H]5O)nc2n(CCC)c1=O` . Reported Na+/K+?
2.72

More entries:
Item under review: CCCn1c(=O)c2[nH]c([C@]34C[C@@H]5C[C@H](C3)[C@@H](O)[C@H]4C5)nc2n(CCC)c1=O (relative stereo) . Reported Na+/K+?
1.85
